# credit: PubChem BioAssay (NCI)

Tested on: SF-295 CNS
Experiment: NCI-60 one-dose screen, 48 h (100 = growth as untreated, 0 = no growth, -100 = all killed)
Conditions: 10 µM unless noted
Experimental: Cells are grown in 96 well plates and exposed to the test compound for 48 hours. Compounds are tested at a single concentration, which is 10^-5 M for most compounds. The reported endpoint is percent growth (GI% or GIPRCNT), where numbers from 0 - 100% represent growth inhibition, and numbers from -100% - 0 represent cell death. For example, a value of 40 represents 60% growth inhibition. A value of 0 means no net growth occurred over the course of the experiment. […]
About 83,000 compounds went through this panel and 20% of them were active in at least one assay; those are over-represented in the sample as a whole.
The threshold is 90%. Values of growth beneath it are tagged satisfied; values meeting or exceeding it are tagged not satisfied.

COMPOUND | MEASUREMENT TARGET | ASSIGNED LABEL
O=S(=O)(NCCCNc1nccc(-c2[nH]c(-c3ccccc3)nc2-c2ccc(Cl)c(O)c2)n1)c1cccc2ccccc12 | SF-295 CNS | satisfied
CS(=O)(=O)Nc1cc(-c2ccc3ncc(C#N)c(N[C@H](CO)c4ccccc4)c3c2)cnc1Cl | SF-295 CNS | satisfied
CCN1CCN(Cc2cn(-c3ccc(S(N)(=O)=O)cc3)nn2)CC1 | SF-295 CNS | not satisfied
O=C(CNc1nc(-c2cccc([N+](=O)[O-])c2)cs1)Nc1cccc([N+](=O)[O-])c1 | SF-295 CNS | satisfied
CC(=O)Nc1cccc(Nc2nc(N[C@H](C)c3ccccc3)c3ccccc3n2)c1 | SF-295 CNS | satisfied
CN1CCN(c2nc(-c3csc(-c4ccccc4)n3)cc3ccccc23)CC1 | SF-295 CNS | satisfied
N#Cc1cccc(NC(=O)c2cc(-c3ccc(F)cc3F)ccc2O)c1 | SF-295 CNS | satisfied
Cc1ccc(NC(=O)c2ccc(CN3CCN(C)CC3)cc2)cc1Oc1ccc(-c2[nH]nc3ncnc(N)c23)cc1 | SF-295 CNS | not satisfied
COc1cccc2cc(-c3cc4ccccc4[nH]3)/c(=N\NC(=O)c3ccc(Cl)cc3)oc12 | SF-295 CNS | satisfied
N#Cc1cnc2ccc(-c3cnc4[nH]ncc4c3)cc2c1N1CCc2cc(F)c(Cl)cc21 | SF-295 CNS | satisfied
CCCn1cnc2c(c1=N)C(c1ccc(F)cc1)c1sc3c(C)cccc3c1O2 (configuration not stated) | SF-295 CNS | satisfied
COc1ccc(OC)c(-c2nc(SCC(=O)c3ccc(Br)cc3)nc(Nc3ccc(S(N)(=O)=O)cc3)c2C#N)c1 | SF-295 CNS | satisfied
CCCn1cnc2c(c1=N)C(c1ccc(F)cc1)c1sc3c(CC)cccc3c1O2 (configuration not stated) | SF-295 CNS | satisfied
NC(N)=Nc1ccc(Oc2cccc(Nc3ccc(Br)c(C(F)(F)F)c3)c2)cn1 | SF-295 CNS | satisfied
O=C(NNc1nc2cc(F)c(F)cc2n2c(CN3CC4CNCC4C3)ccc12)c1ncccn1 (configuration not stated) | SF-295 CNS | satisfied
CN1CCC(n2cc(Nc3ncc4c(=O)n(-c5c(Cl)cccc5Cl)cc(Br)c4n3)cn2)CC1 | SF-295 CNS | satisfied
CC(C)(C)n1nnnc1C(Nc1cccc2c1OCO2)c1cc2cccc3ccc4cccc1c4c32 (configuration not stated) | SF-295 CNS | satisfied
Cc1nn(-c2ccccc2)c2ncnc(N/N=C/c3cccc(O)c3)c12 | SF-295 CNS | satisfied
CS(=O)(=O)c1ncc(-c2ccccc2)cn1 | SF-295 CNS | not satisfied
COc1c(N2CC3CCCNC3C2)c(F)cc2c(=O)c(C(=O)N/N=C/c3ccc(Br)cc3)cn(C3CC3)c12 (configuration not stated) | SF-295 CNS | not satisfied
CCCn1cnc2c(c1=N)C(c1ccc(OC)cc1)c1sc3c(C)cccc3c1O2 (configuration not stated) | SF-295 CNS | satisfied
COc1c(N2CC3CCCNC3C2)c(F)cc2c(=O)c(C(=O)N/N=C/c3ccc(F)cc3)cn(C3CC3)c12 (configuration not stated) | SF-295 CNS | not satisfied
O=S(=O)(NCCCNc1nccc(-c2[nH]c(-c3ccccc3)nc2-c2ccc(Cl)c(O)c2)n1)c1cccc(F)c1 | SF-295 CNS | satisfied
O=C(/C=C/c1ccc(F)cc1)c1ccc(O)cc1 | SF-295 CNS | not satisfied
Cc1ccc(CSc2nc(-c3ccc(Cl)cc3)c(C#N)c(N3CCOCC3)n2)cc1 | SF-295 CNS | not satisfied
CCN1CCN(Cc2ccc(C(=O)Nc3ccc(C)c(Oc4ccc(-c5[nH]nc6ncnc(N)c56)cc4)c3)cc2C(F)(F)F)CC1 | SF-295 CNS | satisfied
Cc1ccc(NC(=O)CNc2cc(C(N)=O)cc(F)c2C)c(Cl)c1 | SF-295 CNS | not satisfied
CCCCCc1ccc(S(=O)(=O)Nc2cccc(-c3csc(NC(=O)CN4CCN(C)CC4)n3)c2)cc1 | SF-295 CNS | not satisfied
COc1ccccc1NCc1cccn1Cc1ccc(F)cc1 | SF-295 CNS | not satisfied
N/C(=N\C(N)=N\c1nc2ccccc2s1)c1ccc(C(F)(F)F)cc1 | SF-295 CNS | satisfied
N=c1c2cc(-c3ccccc3)oc2ncn1/N=C/c1ccc(Br)cc1 | SF-295 CNS | satisfied
C#CCC#CCN1CCC[C@H]1C(=O)NCC(=O)OC | SF-295 CNS | not satisfied
O=C1[C@H]2Cc3c([nH]c4ccccc34)[C@@H](c3c(Cl)cccc3Cl)N2C(=O)CN1C1CCN(CC2CCCCC2)CC1 | SF-295 CNS | not satisfied
CCO/C=N/C1=C(C#N)C(c2ccc(Cl)cc2)c2sc3c(C)cccc3c2O1 (configuration not stated) | SF-295 CNS | satisfied
CN1CCN(Cc2ccc(NC(=O)c3cncc(C#Cc4cnc5ccc(OCC6(C)COC6)nn45)c3)cc2C(F)(F)F)CC1 | SF-295 CNS | satisfied
CCn1c(SCC(=O)Nc2cccc(C(=O)/C=C/c3cc(OC)c(OC)c(OC)c3)c2)nc2ccccc2c1=O | SF-295 CNS | satisfied
